// provenance: ChEMBL document CHEMBL3507680

assay: Human HepG2 cell viability assay in 384 well format; assay type: toxicity, cell-based; design: dose 125 nL, time 70.5 hour; concentration not given beside the values; conditions: HepG2 cells, read-out: Inhibition
cytotoxicity at 70.5 h by entry:

{"columns": ["Molecule", "cytotoxicity at 70.5 h / %"],
 "data": [
  ["CN1CCN(Cc2ccncc2)Cc2cccnc21", -9.78],
  ["Cc1nc(CNC(C(=O)N2CCOCC2)C(C)C)no1 (centres undefined)", -6.16],
  ["Cc1nn(C)c2cn(C(C)C(=O)NCc3ccncc3)nc12 (centres undefined)", -2.93],
  ["O=S(=O)(c1ccccc1Cl)N1CCCC(c2ncc[nH]2)C1 (centres undefined)", -3.85],
  ["Cc1ccc(CN2CC(C(=O)NCC3CC3)C3(CCOCC3)C2)s1 (centres undefined)", -7.98],
  ["N#Cc1ccnc(NCc2cc3n(n2)CCCN(C(=O)C2CCC2)C3)c1", 1.71],
  ["CCn1ccnc1CN1CCN(CC(O)CN2CCOCC2)CC1 (centres undefined)", -15.7],
  ["O=C1NCCN1C1CCN(Cc2nc(-c3ccoc3)no2)CC1", 7.71],
  ["O=C(c1cc(=O)n(-c2ccccc2)[nH]1)N1CCOC(C(F)(F)F)C1 (centres undefined)", 5.57],
  ["O=C(NCCn1ccnc1)N1CCN(Cc2cccs2)CC1", -17.2],
  ["Cn1ccnc1CN1CCCCC1Cn1cccn1 (centres undefined)", 11],
  ["CNC(=O)c1cn[nH]c1C1(C)CCCN(Cc2nccn2C(C)C)C1 (centres undefined)", -2.7],
  ["COc1ccc(NC(C)C(=O)N2CCN(c3ccccc3)CC2)cn1 (centres undefined)", -3.71],
  ["O=C(NCCOCCO)c1cccnc1Oc1ccc(Cl)cc1", 16.6],
  ["Cn1ccc2c(C(=O)N3CCCC3c3noc(C4CC4)n3)cccc21 (centres undefined)", -1.84],
  ["CC(C)(C)C(=O)NCCn1ccc(-c2ccccn2)n1", -1.26],
  ["CC(C)Nc1nc2c(cc1C(=O)NCC1CC1)CCNCC2", -10],
  ["CCn1cc(CN2CCC(O)(Cn3ccc4ncccc43)CC2)cn1", -0.72],
  ["CN[C@@H](CO)C(=O)NCc1cc2n(n1)CCCN(C1CCCCC1)C2", -6.96]
]}

* * *

test: Human HepG2 cell viability assay in 384 well format; assay type: toxicity, cell-based; design: dose 125 nL, time 70.5 hour; concentration not given beside the values; settings: HepG2 cells, read-out: Inhibition

{"columns": ["Compound", "cytotoxicity at 70.5 h"],
 "data": [
  ["N#Cc1ccnc(N2CCN(CC(O)c3cc(F)ccc3F)CC2)c1 (configuration not stated)", "-5.77%"],
  ["Clc1ccc(-c2cnc(CNC3CCc4ncnn4C3)o2)cc1 (configuration not stated)", "-12.9%"],
  ["O=C([C@H]1CCCO1)N1CC[C@@H](O)[C@@H]1Cc1ccccc1", "-8.36%"],
  ["c1ccc(-c2nc(CN3CCOC(Cn4cccn4)C3)cs2)cc1 (configuration not stated)", "-2.87%"],
  ["Cn1cc(N2C(=O)CC[C@@H]3[C@H]2CCN3Cc2nccs2)cn1", "-11.9%"],
  ["CC(=O)NC1CCCN(c2ccc(C#N)cc2C(F)(F)F)C1 (configuration not stated)", "-0.014%"],
  ["CC(C)c1nccn1CCCNC(=O)c1ccc(-c2cncnc2)nc1", "-9.84%"],
  ["O=C(N[C@H]1CN[C@H]2CCCO[C@H]21)c1cccnc1", "-10.1%"],
  ["COCc1nn(CC2CC2)c2c1CN(Cc1cncn1C)CC2", "2.02%"],
  ["Cc1noc(CCNS(=O)(=O)N2CCCC2c2ccco2)n1 (configuration not stated)", "-8.16%"],
  ["COc1ccc(CN(Cc2nc(C)no2)C2CCCCC2)cc1OC", "-1.31%"],
  ["O=C(NCC1OCCc2cn(CC3CC3)nc21)c1ccsc1 (configuration not stated)", "47.4%"],
  ["CC(=O)N1CCc2c(nc(N(C)C)nc2NCCC2CCCCO2)C1 (configuration not stated)", "-5.03%"],
  ["O=C(c1ccc[nH]1)N1CCC2(CCCN2Cc2cccnc2)CC1", "0.719%"],
  ["CC(=O)N1CCN(C(=O)CCOc2ccc(C(C)C)cc2)CC1", "-3.31%"],
  ["N#CC1(NC(=O)c2ccc(-c3nc(C4CC4)n[nH]3)cc2)CCC1", "-16.7%"],
  ["CCN(CC(=O)Nc1cc(C(C)(C)C)no1)Cc1ccc(Cl)s1", "-3.4%"],
  ["O=C(Nc1nccs1)N(CCO)Cc1ccsc1", "1.52%"],
  ["C[C@@H]1CN(C(=O)CCc2cnn(C)c2)C[C@@]1(O)C1CCC1", "-5.7%"],
  ["O=C(c1cn(-c2cc(N3CCSCC3)ncn2)cn1)N1CCSCC1", "-1.64%"],
  ["O=C(CO)N1CCC(c2ccnc(Nc3cc(C(F)(F)F)ccn3)n2)C1 (configuration not stated)", "-3.68%"],
  ["Cc1nn(C)c(Cl)c1C1CCCN1Cc1ccccn1 (configuration not stated)", "-7.44%"],
  ["Cc1nc(C)n(CC2CCCN2CCOc2ccc(C#N)cc2)n1 (configuration not stated)", "6.36%"],
  ["CN1CCCCc2c1nc1c(c2N)CCC1.O=C(O)c1cc([N+](=O)[O-])ccc1Cl", "-11.7%"],
  ["O=C(N1CCCO1)[C@@]12CCO[C@@H]1CCN(Cc1ccc(F)cc1)C2", "-1.1%"],
  ["O=C(Nc1ccc(F)cc1)C1CNCCN1C(=O)CCO (configuration not stated)", "8.54%"],
  ["CC(C)(CNC(=O)NCCc1ccn(-c2ccccc2)n1)C(N)=O", "-6.77%"],
  ["CCNC(=O)CNS(=O)(=O)Cc1cc(-c2ccccc2)no1", "2.55%"],
  ["Cc1cnc2[nH]c(C(F)(F)F)c(CN3CCCC(CO)C3)c2c1 (configuration not stated)", "3.56%"],
  ["CC(C)c1nnsc1CNC(=O)C1CCCN(C(=O)N(C)C)C1 (configuration not stated)", "-11.2%"],
  ["O=C(CCn1cccn1)N1CCSCC1", "-4.39%"],
  ["CCn1ncc2c1C(COC)CN(Cc1ccc(F)cc1)C2 (configuration not stated)", "2.06%"]
]}
